Target: HLA-A*02:01 (Homo sapiens, UniProt P04439, D140Y/D185E/D98H/E176V/E277Q/G131W/G231S/I119V/I121R/I166T/I218V/L300P/L318F/N151K/N90K/P208A/P217A/Q86G/Q94H/R138H/R169H/T345S)
Assay: MHC binding assay: UV-ligand exchange with beta2m ELISA (peptide exchange yield)
Settings: binding to HLA-A*02:01
metric_name: Peptide exchange (MHC class I binding score, peptide exchange yield)

Solved cases below.
INSERT INTO results (substance, test_value) VALUES
  ('431 (SLVNVVPKL; listed as Homo sapiens) [compound 431]', '“++” (≥20% = ++)'),
  ('517 (LLMPIPEGLTL; listed as Homo sapiens) [compound 517]', '“+++” (≥50 = +++)'),
  ('51 (LLPDLEFYV; listed as Homo sapiens) [compound 51]', '“++++” (≥75% = ++++)'),
  ('363 (KVLDVSDLESV; listed as Homo sapiens) [compound 363]', '“++” (≥20% = ++)'),
  ('238 (YLISFQTHI; listed as Homo sapiens) [compound 238]', '“+++” (≥50 = +++)');

Give Peptide exchange (MHC class I binding score, peptide exchange yield) for each of the items listed below.
1. 88 (FLLVGDLMAV; listed as Homo sapiens) [compound 88]
2. 223 (ALLENIALYL; listed as Homo sapiens) [compound 223]
3. 371 (FLQAHLHTA; listed as Homo sapiens) [compound 371]
4. 47 (ILLSVPLLVV; listed as Homo sapiens) [compound 47]
5. 166 (YLNHLEPPV; listed as Homo sapiens) [compound 166]
6. 332 (YLISELEAA; listed as Homo sapiens) [compound 332]
7. 440 (ALADGVTMQV; listed as Homo sapiens) [compound 440]

A.
1. “+++” (≥50 = +++)
2. “+++” (≥50 = +++)
3. “++++” (≥75% = ++++)
4. “++” (≥20% = ++)
5. “+++” (≥50 = +++)
6. “+++” (≥50 = +++)
7. “++” (≥20% = ++)

Could I get Peptide exchange (MHC class I binding score, peptide exchange yield) for every one of these entries?
1. 102 (YLFESEGLVL; listed as Homo sapiens) [compound 102]
2. 32 (KLDDLTQDLTV; listed as Homo sapiens) [compound 32]
3. 249 (LLDGFLVNV; listed as Homo sapiens) [compound 249]
4. 390 (ALFMKQIYL; listed as Homo sapiens) [compound 390]
5. 247 (VLLPNDLLEKV; listed as Homo sapiens) [compound 247]
6. 510 (KLYSVVSQL; listed as Homo sapiens) [compound 510]
7. 300 (ALLGQTFSL; listed as Homo sapiens) [compound 300]

A.
1. “+++” (≥50 = +++)
2. “++” (≥20% = ++)
3. “+++” (≥50 = +++)
4. “+++” (≥50 = +++)
5. “+++” (≥50 = +++)
6. “++” (≥20% = ++)
7. “+++” (≥50 = +++)
